- Study system: NK1 receptors (Homo sapiens, UniProt P25103)
- Sequence (P25103 whole entry): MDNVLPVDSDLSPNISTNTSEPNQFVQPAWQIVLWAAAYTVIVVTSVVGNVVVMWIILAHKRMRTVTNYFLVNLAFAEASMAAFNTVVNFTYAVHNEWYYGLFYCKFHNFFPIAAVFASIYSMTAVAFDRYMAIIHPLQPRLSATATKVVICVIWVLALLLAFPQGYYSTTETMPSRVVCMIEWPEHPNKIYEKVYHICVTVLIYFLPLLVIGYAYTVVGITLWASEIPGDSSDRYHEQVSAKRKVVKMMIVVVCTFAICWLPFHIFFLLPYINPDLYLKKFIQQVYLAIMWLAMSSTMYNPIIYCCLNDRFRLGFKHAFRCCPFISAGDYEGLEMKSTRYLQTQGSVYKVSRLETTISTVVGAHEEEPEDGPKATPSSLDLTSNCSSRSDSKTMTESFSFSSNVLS
- Test description: Binding of [4,5-3H-Leu10] substance P to human recombinant NK1 receptors expressed in CHO cell membranes
- Assay context: pIC50 = -log IC50, concentration inhibiting by 50% the specific binding of [4,5-3H] substance P; tested as the free base/salt given in c1
Measure name: pIC50
Answers are plain numbers, as −log10 of the molar value.

These solved cases illustrate the format of a correct answer.
>>> df
                                   compound                              study_system  meas_value
0  CCOC(=O)CCCCCN1CCN(C(COCc2cc(C(F)(F)F)cc(C(F)(F)F)c2)c2ccccc2)CC1 (racemic)  NK1 receptors (Homo sapiens, UniProt P25103)        8.10
1  O=C(CCCCCN1CCN(C(COCc2cc(C(F)(F)F)cc(C(F)(F)F)c2)c2ccccc2)CC1)NO (stereo not drawn)  NK1 receptors (Homo sapiens, UniProt P25103)        8.30
2  O=C(O)CN1CCN([C@H](COCc2cc(C(F)(F)F)cc(C(F)(F)F)c2)c2ccccc2)CC1  NK1 receptors (Homo sapiens, UniProt P25103)        7.30
3  CCOP(=O)(CCN1CCN([C@H](COCc2cc(C(F)(F)F)cc(C(F)(F)F)c2)c2ccccc2)CC1)OCC  NK1 receptors (Homo sapiens, UniProt P25103)        7.40
4  O=c1[nH]nc(CN2CCN(C(COCc3cc(C(F)(F)F)cc(C(F)(F)F)c3)c3ccccc3)CC2)[nH]1 (stereo not drawn)  NK1 receptors (Homo sapiens, UniProt P25103)        7.20
5  CC(C)OC(=O)CN1CCN([C@H](COCc2cc(C(F)(F)F)cc(C(F)(F)F)c2)c2ccccc2)CC1  NK1 receptors (Homo sapiens, UniProt P25103)        7.10
6  O=C(O)COCCN1CCN([C@H](COCc2cc(C(F)(F)F)cc(C(F)(F)F)c2)c2ccccc2)CC1  NK1 receptors (Homo sapiens, UniProt P25103)        7.10
7  FC(F)(F)c1cc(COCC(c2ccccc2)N2CCN(Cc3ccccn3)CC2)cc(C(F)(F)F)c1 (racemic)  NK1 receptors (Homo sapiens, UniProt P25103)        7.30

Next item in the queue.
Lab note: measured pIC50 of Fc1ccc(C(COCc2cc(C(F)(F)F)cc(C(F)(F)F)c2)N2CCN(CCCCc3nnn[nH]3)CC2)cc1 (stereo not drawn) was 7.80

====

- Study system: UniProt:P25103
- Test description: Binding of [4,5-3H-Leu10] substance P to human recombinant NK1 receptors expressed in CHO cell membranes
- Assay context: pIC50 = -log IC50, concentration inhibiting by 50% the specific binding of [4,5-3H] substance P; tested as the free base/salt given in c1
Measure name: IC50 (nM)
Answers are plain numbers, in nM.

Please give IC50 for each item listed below.
1. O=C(O)CN1CCN(C(COCc2cc(C(F)(F)F)cc(C(F)(F)F)c2)c2ccc(Br)cc2)CC1 (racemic) [Compound 250]
2. COc1cc(COCCN2CCN(C(COCc3cc(C(F)(F)F)cc(C(F)(F)F)c3)c3ccccc3)CC2)cc(OC)c1OC (racemic) [Compound 175]
3. NC(=O)CN1CCN([C@@H](COCc2cc(C(F)(F)F)cc(C(F)(F)F)c2)c2ccccc2)CC1 [Compound 145]
4. CC(=O)NC(CCN1CCN(C(COCc2cc(C(F)(F)F)cc(C(F)(F)F)c2)c2ccccc2)CC1)c1ccccc1 (stereo not shown) [Compound 308]

Reply:
[79.4, 5.01, 31.6, 12.6]

====

- Study system: NK1 receptors (Homo sapiens)
- Test description: Binding of [4,5-3H-Leu10] substance P to human recombinant NK1 receptors expressed in CHO cell membranes
- Assay context: pIC50 = -log IC50, concentration inhibiting by 50% the specific binding of [4,5-3H] substance P; tested as the free base/salt given in c1
Assignment: determine reported log10 of IC50 for the given molecules.
Units before log transform: nM; reported quantity: IC50; transform: log10.

                                   molecule   measure_name  meas_value
0  OCCN1CCN(C(COCc2cc(C(F)(F)F)cc(C(F)(F)F)c2)c2ccccc2)CC1 (racemic)  log10 of IC50        0.80
1  O=C(O)C1CCC(N2CCN(C(COCc3cc(C(F)(F)F)cc(C(F)(F)F)c3)c3ccccc3)CC2)CC1 (stereo not drawn) [Compound 313]  log10 of IC50        1.20
2  NC(=O)COCCN1CCN([C@@H](COCc2cc(C(F)(F)F)cc(C(F)(F)F)c2)c2ccccc2)CC1  log10 of IC50        1.80

I have 7 molecules here; please give me log10 of IC50 for each one.
1. COc1cc(COCCN2CCN(C(COCc3cc(C(F)(F)F)cc(C(F)(F)F)c3)c3ccccc3)CC2)cc(OC)c1OC (stereo not drawn) [Compound 176]
2. CN(C(=O)CN1CCN(C(COCc2cc(C(F)(F)F)cc(C(F)(F)F)c2)c2ccccc2)CC1)C(C)(C)C (racemic)
3. NC(=O)COCCN1CCN([C@H](COCc2cc(C(F)(F)F)cc(C(F)(F)F)c2)c2ccccc2)CC1
4. O=C(O)c1ccccc1CN1CCN(C(COCc2cc(C(F)(F)F)cc(C(F)(F)F)c2)c2ccccc2)CC1 (racemic)
5. O=C(O)CN1CCN([C@@H](COCc2cc(C(F)(F)F)cc(C(F)(F)F)c2)c2ccccc2)CC1
6. FC(F)(F)c1cc(COCC(c2ccccc2)N2CCN(CCCCc3nnn[nH]3)CC2)cc(C(F)(F)F)c1 (stereo not drawn)
7. O=C(O)c1ccc(CN2CCN([C@H](COCc3cc(C(F)(F)F)cc(C(F)(F)F)c3)c3ccccc3)CC2)cc1

Reply:
1. 1.40
2. 1.10
3. 1.60
4. 0.90
5. 1.90
6. 1.30
7. 1.80

Would you mind listing log10 of IC50 for each of the following molecules?
1. OCCOCCN1CCN([C@H](COCc2cc(C(F)(F)F)cc(C(F)(F)F)c2)c2ccccc2)CC1
2. FC(F)(F)c1cc(COCC(c2ccccc2)N2CCN(c3ccnc4ccccc34)CC2)cc(C(F)(F)F)c1 (stereo not drawn)
3. CCOC(=O)CCCN1CCN(C(COCc2cc(C(F)(F)F)cc(C(F)(F)F)c2)c2ccccc2)CC1 (racemic)
4. O=C(O)C1CCC(N2CCN(C(COCc3cc(C(F)(F)F)cc(C(F)(F)F)c3)c3ccccc3)CC2)CC1 (stereo not drawn) [Compound 312]
5. NC(=O)CN1CCN([C@H](COCc2cc(C(F)(F)F)cc(C(F)(F)F)c2)c2ccccc2)CC1
6. O=C(O)CCCN1CCN(C(COCc2cc(C(F)(F)F)cc(C(F)(F)F)c2)c2ccccc2)CC1 (racemic)

Reply:
1. 0.90
2. 1.60
3. 1.00
4. 1.40
5. 1.60
6. 1.70

Respectfully, I request log10 of IC50 for each entry included below.
1. Cc1ccc(S(=O)(=O)NC(=O)OCCN2CCN(C(COCc3cc(C(F)(F)F)cc(C(F)(F)F)c3)c3ccccc3)CC2)cc1 (stereo not drawn)
2. O=C(O)CN1CCN(C(COCc2cc(C(F)(F)F)cc(C(F)(F)F)c2)c2ccccc2)CC1 (racemic)

Reply:
1. 1.20
2. 1.90

====

- Study system: NK1 receptors (Homo sapiens)
- Test description: Binding of [4,5-3H-Leu10] substance P to human recombinant NK1 receptors expressed in CHO cell membranes
- Assay context: pIC50 = -log IC50, concentration inhibiting by 50% the specific binding of [4,5-3H] substance P; tested as the free base/salt given in c1
Record form. Attribute: pIC50. Fill in for each entry.
Give bare numbers, as −log10 of the molar value.

I would be grateful if you could provide pIC50 for each of the following entries.
1. CNC(=O)CN1CCN(C(COCc2cc(C(F)(F)F)cc(C(F)(F)F)c2)c2ccccc2)CC1 (racemic)
2. CC(OCC(c1ccccc1)N1CCN(CCCCc2nnn[nH]2)CC1)c1cc(C(F)(F)F)cc(C(F)(F)F)c1 (centres unmarked) [Compound 302]

Reply:
7.80
8.40

Below is a list of molecules. For each, state its recorded pIC50.
1. NC(=O)CCCN1CCN(C(COCc2cc(C(F)(F)F)cc(C(F)(F)F)c2)c2ccccc2)CC1 (centres unmarked)
2. CC(OCC(c1ccccc1)N1CCN(CCCCc2nnn[nH]2)CC1)c1cc(C(F)(F)F)cc(C(F)(F)F)c1 (centres unmarked) [Compound 303]
3. NC(=O)CN1CCN(C(COCc2cc(C(F)(F)F)cc(C(F)(F)F)c2)c2cccc3ccccc23)CC1 (racemic)

Reply:
8.30
8.30
7.20

For each listed entry, give its pIC50.
1. O=C1c2ccccc2C(=O)N1CCN1CCN(C(COCc2cc(C(F)(F)F)cc(C(F)(F)F)c2)c2ccccc2)CC1 (racemic)
2. N#CCCCCN1CCN(C(COCc2cc(C(F)(F)F)cc(C(F)(F)F)c2)c2ccccc2)CC1 (racemic)
3. N#CCCCCCN1CCN(C(COCc2cc(C(F)(F)F)cc(C(F)(F)F)c2)c2ccccc2)CC1 (racemic)
4. O=C(O)CCCCN1CCN(C(COCc2cc(C(F)(F)F)cc(C(F)(F)F)c2)c2ccccc2)CC1 (racemic)
5. NC(=O)COCCN1CCN(C(COCc2cc(C(F)(F)F)cc(C(F)(F)F)c2)c2ccccc2)CC1 (racemic)
6. C[C@@H](OC[C@@H](c1ccccc1)N1CCN(CC(=O)O)CC1)c1cc(C(F)(F)F)cc(C(F)(F)F)c1

Reply:
1. 7.10
2. 7.90
3. 8.10
4. 7.50
5. 8.00
6. 8.00

# batch size: 6; output pIC50 per entry
1. FC(F)(F)c1cc(COC[C@@H](c2ccccc2)N2CCN(CCCCc3nnn[nH]3)CC2)cc(C(F)(F)F)c1
2. CC(OCC(c1ccccc1)N1CCN(CC(=O)O)CC1)c1cc(C(F)(F)F)cc(C(F)(F)F)c1 (single isomer, unassigned) [Compound 274]
3. FC(F)(F)c1cc(COCC(c2ccccc2)N2CCN(CCN3CCOCC3)CC2)cc(C(F)(F)F)c1 (racemic)
4. O=S(=O)(O)CCCN1CCN(C(COCc2cc(C(F)(F)F)cc(C(F)(F)F)c2)c2ccccc2)CC1 (racemic)
5. NC(=O)CN1CCN(C(COCc2cc(C(F)(F)F)cc(C(F)(F)F)c2)c2ccccc2)CC1 (centres unmarked)
6. CS(=O)(=O)NC(=O)COCCN1CCN(C(COCc2cc(C(F)(F)F)cc(C(F)(F)F)c2)c2ccccc2)CC1 (centres unmarked)

Reply:
[7.80, 7.90, 8.10, 7.50, 7.40, 7.10]
